Experimental System: PRMT5 (Homo sapiens, UniProt O14744)
Construct: purchased Viva (custom protein)
Sequence (O14744 whole entry): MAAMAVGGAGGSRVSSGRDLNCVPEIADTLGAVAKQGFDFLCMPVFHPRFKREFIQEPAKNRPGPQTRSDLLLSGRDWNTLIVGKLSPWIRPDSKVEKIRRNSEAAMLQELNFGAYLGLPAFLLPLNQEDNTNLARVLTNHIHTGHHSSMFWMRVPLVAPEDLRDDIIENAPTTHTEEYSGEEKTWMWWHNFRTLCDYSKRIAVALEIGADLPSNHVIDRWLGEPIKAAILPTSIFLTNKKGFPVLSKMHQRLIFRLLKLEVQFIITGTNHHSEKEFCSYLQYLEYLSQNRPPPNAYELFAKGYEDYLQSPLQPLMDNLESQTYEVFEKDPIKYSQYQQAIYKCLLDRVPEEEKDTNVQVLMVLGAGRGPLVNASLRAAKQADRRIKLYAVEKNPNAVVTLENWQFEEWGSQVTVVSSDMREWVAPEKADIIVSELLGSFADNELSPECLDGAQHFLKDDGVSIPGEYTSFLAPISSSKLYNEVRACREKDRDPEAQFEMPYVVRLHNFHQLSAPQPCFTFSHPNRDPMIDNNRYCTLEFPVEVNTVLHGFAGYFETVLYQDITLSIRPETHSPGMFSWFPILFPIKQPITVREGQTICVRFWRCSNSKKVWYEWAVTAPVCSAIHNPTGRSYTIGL
Sequence (Q9BQA1 whole entry partner): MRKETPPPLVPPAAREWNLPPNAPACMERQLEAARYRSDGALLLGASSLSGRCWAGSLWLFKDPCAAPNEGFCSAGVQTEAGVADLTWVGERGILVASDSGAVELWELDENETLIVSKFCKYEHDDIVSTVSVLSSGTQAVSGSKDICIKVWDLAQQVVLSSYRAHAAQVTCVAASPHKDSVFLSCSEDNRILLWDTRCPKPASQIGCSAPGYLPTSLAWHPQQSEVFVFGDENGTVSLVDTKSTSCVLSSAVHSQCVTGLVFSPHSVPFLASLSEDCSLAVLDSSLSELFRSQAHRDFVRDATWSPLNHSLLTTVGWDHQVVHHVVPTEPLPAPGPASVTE
Assay Name: PRMT5 biochemical IC50 assay with MTA as cofactor
Stated Conditions: PRMT5, MTA as cofactor; read-out: MTA IC50
Assignment: determine reported IC50 for the given molecules.

The cases that follow already have their IC50 on record.
C[C@@H]1CC[C@@H](c2ccnc(C(F)(F)F)c2)N(C(=O)C(=O)Nc2cncc(C(N)=O)c2)C1 (racemic)	50 to 500 nM
NC(=O)c1cncc(NC(=O)C(=O)N2C[C@H](OC(F)F)CC[C@@H]2c2ccccc2)c1 (racemic)	50 to 500 nM

Proceeding to the next molecule to report its IC50.
Entry CCc1cc(NC(=O)C(=O)N2C[C@H](C)CC[C@H]2c2ccc(-c3nccs3)cc2)cnc1N (single isomer, unassigned) , IC50 reported as < 50 nM

---

Exercise: state measured IC50 for each of the molecules provided.
Experimental System: PRMT5 (Homo sapiens, UniProt O14744)
Construct: purchased Viva (custom protein)
Assay Name: PRMT5 biochemical IC50 assay with no cofactor
Stated Conditions: PRMT5, no cofactor; read-out: No Cofactor/ rel IC50

Please review the entries below; each comes with its answer.
Cc1cncc(NC(=O)C(=O)N2C[C@H](C)CC[C@H]2c2ccc(F)cc2)c1 (racemic)	50 to 500 nM
CCc1cc(NC(=O)C(=O)N2C[C@H](C)C(F)(F)C[C@H]2c2ccc3[nH]ncc3c2)cnc1N (single isomer, unassigned)	50 to 500 nM
Cc1cc(NC(=O)C(=O)N2CCCC[C@@H]2c2cccnc2)cnc1N (single isomer, unassigned)	> 500 nM
Cc1cc(NC(=O)C(=O)N2C[C@@H](C)CC[C@@H]2c2ccc3sc(CCN4CCCC4)nc3c2)cnc1N	< 50 nM
NC(=O)c1cncc(NC(=O)C(=O)N2CCCCC2C2CCC(F)(F)CC2)c1 (stereo not shown)	> 500 nM
CCc1cc(NC(=O)C(=O)N2C[C@@H](C)CC[C@@H]2c2ccc(N3C[C@H]4CN(C)CC[C@H]4C3)cc2)cnc1N (racemic)	< 50 nM

Record IC50 for all entries; do not skip any.
1. Cc1ncc(NC(=O)C(=O)N2C[C@@H](C)CC[C@@H]2c2ccc3sc(C4CCN(C)CC4)nc3c2)cc1C(N)=O
2. CO[C@H]1C[C@H](c2ccc3scnc3c2)N(C(=O)C(=O)Nc2cnc(N)c(C3CC3)c2)C[C@H]1C (single isomer, unassigned)
3. COc1ncc(NC(=O)C(=O)N2C[C@@H](C)CC[C@@H]2c2ccc3sc(C4CN(C)C4)nc3c2)cc1C(N)=O

Output:
1: < 50 nM; 2: < 50 nM; 3: < 50 nM

---

Would you kindly list IC50 for each of these compounds?
Experimental System: PRMT5 (Homo sapiens, UniProt O14744)
Construct: purchased Viva (custom protein)
Assay Name: PRMT5 biochemical IC50 assay with SAM as cofactor
Stated Conditions: PRMT5, SAM as cofactor; read-out: SAM IC50

Previously resolved entries follow.
Cc1cc(NC(=O)C(=O)N2C[C@@H](C)CC[C@@H]2c2ccc(CCN(C)C)cc2)cnc1N (single isomer, unassigned) [Compound 1322]	> 500 nM
Cc1cc([C@@H]2CC[C@@H](C)CN2C(=O)C(=O)Nc2cncc(C(N)=O)c2)ccc1O (single isomer, unassigned) [Compound 323]	50 to 500 nM
Cc1cc(NC(=O)C(=O)N2C[C@H](C)CC[C@H]2c2ccc3c(=O)[nH]ccc3c2)cnc1N (single isomer, unassigned) [Compound 953]	> 500 nM
CCc1cc(NC(=O)C(=O)N2C[C@@H](C)CC[C@@H]2c2cc3[nH]ncc3s2)cnc1N (single isomer, unassigned) [Compound 967]	> 500 nM

Each compound below has a reported value. Please supply its IC50.
1. COc1ncc(NC(=O)C(=O)N2C[C@@H](C)CC[C@@H]2c2ccc3sc(N)nc3c2)cc1C(N)=O (racemic) [Compound 954]
2. CCc1cc(NC(=O)C(=O)N2C[C@@H](C)CC[C@@H]2c2cnc3c(c2)CCC(=O)N3)cnc1N (racemic) [Compound 916]
3. NC(=O)CC1CCC2CN(C(=O)C(=O)Nc3cncc(C(N)=O)c3)CCC2C1 (stereo not drawn) [Compound 420]
4. Cc1cc(NC(=O)C(=O)N2C[C@H](C)CC[C@H]2c2ccn(-c3cc[nH]n3)n2)cnc1N (single isomer, unassigned) [Compound 782]
5. CCc1cc(NC(=O)C(=O)N2C[C@@H](C)CC[C@@H]2c2ccc(N3CC[C@@H]4CN(C)C[C@@H]4C3)cc2)cnc1N (relative stereo) [Compound 1349]

Output:
1: 50 to 500 nM; 2: > 500 nM; 3: > 500 nM; 4: < 50 nM; 5: 50 to 500 nM
